Target Or System: human M2 receptor (Homo sapiens)
Construct: expressed in transfected cells; host or cells: CHO-DUKX (CHO-DUKX-M2-GIRK)
Sequence (P08172 whole entry): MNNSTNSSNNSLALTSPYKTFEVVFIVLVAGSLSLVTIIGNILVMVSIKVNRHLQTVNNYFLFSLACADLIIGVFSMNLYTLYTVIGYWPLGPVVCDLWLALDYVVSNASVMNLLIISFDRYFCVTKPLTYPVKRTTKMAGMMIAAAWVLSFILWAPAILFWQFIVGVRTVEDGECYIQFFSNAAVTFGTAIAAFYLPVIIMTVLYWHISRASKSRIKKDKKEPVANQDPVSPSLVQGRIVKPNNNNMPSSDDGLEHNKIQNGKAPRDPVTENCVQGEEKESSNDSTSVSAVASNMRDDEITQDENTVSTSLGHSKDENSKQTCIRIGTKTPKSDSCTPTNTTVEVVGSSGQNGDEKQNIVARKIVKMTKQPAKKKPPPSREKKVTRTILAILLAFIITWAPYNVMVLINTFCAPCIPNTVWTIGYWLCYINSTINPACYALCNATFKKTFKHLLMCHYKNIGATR
Experiment Notes: Functional M2-GIRK1/4 activation test: positive cooperativity (α factor), shift of acetylcholine dose-response curve
Type: cell-based
Run Parameters: Allosteric EC50 shift of acetylcholine 8-point dose-response curve; CHO-DUKX-M2-GIRK cells; α>1 = positive cooperativity
Give YES when the value for Cooperativity (alpha factor) is at least 40. Give NO when it is less.

Given the entry CC(NC(=O)c1cn(-c2c(F)cc(F)cc2F)c2nc(N3CC(CO)(CO)C3)c(F)cc2c1=O)C(F)(F)C(F)(F)F (racemic) [Example 169] , answer whether its Cooperativity (alpha factor) meets or surpasses 40.
NO

Given the entry O=C(NC(C1CC1)(C1CC1)C(F)(F)F)c1cn(-c2c(F)cc(F)cc2F)c2nc(N3CC(CO)(CO)C3)c(F)cc2c1=O , answer whether its Cooperativity (alpha factor) meets or surpasses 40.
NO

Given the entry O=C(N[C@@H](C1CC1)C(F)(F)F)c1cn(-c2c(F)cc(F)cc2F)c2nc(N3C[C@@H](O)[C@H](O)C3)c(F)cc2c1=O , answer whether its Cooperativity (alpha factor) meets or surpasses 40.
YES

Given the entry CC(NC(=O)c1cn(-c2c(F)cc(F)cc2F)c2nc(N3C[C@@H](O)[C@@H](O)C3)c(F)cc2c1=O)C(F)(F)C(F)(F)F (single isomer, unassigned) , answer whether its Cooperativity (alpha factor) meets or surpasses 40.
NO

Given the entry CCC(COC(F)(F)F)NC(=O)c1cn(-c2c(F)cc(F)cc2F)c2nc(N3C[C@@H](O)[C@H](O)C3)c(F)cc2c1=O (single isomer, unassigned) [Example 31] , answer whether its Cooperativity (alpha factor) meets or surpasses 40.
NO

Given the entry CC(NC(=O)c1cn(-c2c(F)cc(F)cc2F)c2nc(N3CCC(O)C(O)C3)c(F)cc2c1=O)C(F)(F)C(F)(F)F (single isomer, unassigned) , answer whether its Cooperativity (alpha factor) meets or surpasses 40.
NO

Given the entry O=C(NC(C(F)(F)F)C(F)(F)F)c1cn(-c2c(F)cc(F)cc2F)c2nc(N3CC(CO)(CO)C3)c(F)cc2c1=O , answer whether its Cooperativity (alpha factor) meets or surpasses 40.
NO

Given the entry O=C(N[C@@H](C1CC1)C(F)(F)F)c1cn(-c2c(F)cc(F)cc2F)c2nc(N3C[C@@H](O)[C@H](O)C3)c(Br)cc2c1=O , answer whether its Cooperativity (alpha factor) meets or surpasses 40.
NO

Given the entry CC(NC(=O)c1cn(-c2c(F)cc(F)cc2F)c2nc(N3C[C@@H](O)[C@H](O)C3)c(F)cc2c1=O)C(F)(F)C(F)(F)F (single isomer, unassigned) [Example 10] , answer whether its Cooperativity (alpha factor) meets or surpasses 40.
YES

Given the entry CC(NC(=O)c1cn(-c2c(F)cc(F)cc2F)c2nc(N3CC[C@H](O)C3)c(F)cc2c1=O)C(F)(F)C(F)(F)F (mixture of isomers) [Example 112] , answer whether its Cooperativity (alpha factor) meets or surpasses 40.
NO
